- Species on record: Homo sapiens
- test name: Selectivity ratio of IC50 for CSK (unknown origin) to IC50 for BTK (unknown origin)
reported property: Ratio IC50

COCC(=O)N1CCC[C@@H](c2nc(-c3ccc(C(=O)Nc4cc(C(F)(F)F)ccn4)cc3F)c3c(N)nccn23)C1	1180
CC(C)C(=O)N1CCO[C@@H](c2nc(-c3ccc(C(=O)Nc4cc(C(F)(F)F)ccn4)cc3F)c3c(N)nccn23)C1	4880

(A) COCC(=O)N1CCO[C@@H](c2nc(-c3ccc(C(=O)Nc4cc(C(F)(F)F)ccn4)cc3F)c3c(N)nccn23)C1
(B) Nc1nccn2c([C@@H]3CCCN(C4CCOCC4)C3)nc(-c3ccc(C(=O)Nc4cc(C(F)(F)F)ccn4)cc3F)c12
# return whichever of A and B has the smaller Ratio IC50 Your choice should be expressed through its label.
B
(B: 548, A: 2230)
